# test_protocol: folding enthalpy; higher = less favourable; fluorescence melt of hairpins on a sequencing array, two-state fit
# setup_conditions: sodium 0.088 M
readout: folding enthalpy (kcal/mol)
Provide the reading as a plain figure in kcal/mol.

Please review the entries below; each comes with its answer.
residues	measured_number
GATCAGCGATCTGATC ((((((....))))))	-19.5
GTCTGACGAAAGTCGAC (((.(((....))))))	-16.9
GTACAAGGAAACTTGTGC (.(((((....))))).)	-22.3
GCCAATCGAAAGATCGGC (((.(((....))).)))	-35.6
GATCGCGGAAACGCAATC (((.(((....))).)))	-22.6

Which measured folding enthalpy value corresponds to GATCTTCCTCAAGATC ((((((....)))))) ? -30.1

====

# test_protocol: melting temperature; fluorescence melt of hairpins on a sequencing array, two-state fit, raised by 9.35 °C to match UV melts
# setup_conditions: sodium 0.088 M
readout: Tm (°C)
Provide the reading as a plain figure in °C.

Which measured Tm value corresponds to GTCACCGGAAACAGTGAC (((((.(....).))))) ? 44.9

Which measured Tm value corresponds to GATCTGAGGACAGATC ((((((....)))))) ? 46.3

Which measured Tm value corresponds to GTTATGCGAAAGCAAAC (((.(((....)))))) ? 36.5

Which measured Tm value corresponds to GCTAAGCGAAAGCTATGC ((..(((....)))..)) ? 43.5

Which measured Tm value corresponds to GTTACTGGAAACAGCAAC (((.(((....))).))) ? 36

Which measured Tm value corresponds to GCTGGCGGAAACGTCGGC ((.(.((....)).).)) ? 53.1

Which measured Tm value corresponds to GACGCGACGAAAGTCGTC (((..(((....)))))) ? 35.5

Which measured Tm value corresponds to GGATCTGAAAAGATCC ((((((....)))))) ? 58.3

Which measured Tm value corresponds to GTACGACGAAAGTCTTAC (((.(((....))).))) ? 40.3

Which measured Tm value corresponds to GCGTGTAGACGC ((((....)))) ? 58.5

Which measured Tm value corresponds to GCACCGCGAAAGCTTTGC (((..((....))..))) ? 36.2

====

# test_protocol: melting temperature; fluorescence melt of hairpins on a sequencing array, two-state fit, raised by 9.35 °C to match UV melts
# setup_conditions: sodium 0.088 M
Label Met when Tm is strictly below 50 °C; otherwise label Not met.

residues	label
GATCGATTATCGATC ((((((...))))))	Not met
GGTTGTGGAAACGCAACC (((((.(....).)))))	Not met
GGGTACGGAAACACACCC ((((..(....)..))))	Met
GAGACGGAAACGTCTC ((((((....))))))	Not met
GGCGGCGGAAACGCCACC ((.((((....)))).))	Not met

# input for lookup
A record lists GATAAAGGAAACTTTGTC ((.((((....)))).)) . Is its Tm below 50 °C? Met

====

# test_protocol: melting temperature; fluorescence melt of hairpins on a sequencing array, two-state fit, raised by 9.35 °C to match UV melts
# setup_conditions: sodium 0.088 M
Just so you know, the groups by Tm go like this: low value: < 40 °C; medium value: ≥ 40 °C and < 50 °C; high value: ≥ 50 °C

Solved entries (count: 3):
residues	label
GAGACGGGAAACCATCTC ((((.((....)).))))	low value
GAGCTAGCGAAAGCTCTC (((..(((....))))))	medium value
GTAGACGAAAGTCTAC ((((((....))))))	high value

Each sequence maps to one class by Tm. Which class for GATATCCGAAAGGAAATC (((.(((....))).))) ? low value

Each sequence maps to one class by Tm. Which class for GACCACGGAAACGTGATC ((.((((....)))).)) ? medium value

Each sequence maps to one class by Tm. Which class for CGGCCGGAAACGGCCCG ((((((....))).))) ? high value
